These entries and their values trace back to PubChem BioAssay.

assay: E. coli DRC41 culture turbidity changes, primary screen, E. coli filamentation inducer project, strain DRC41, OD650, 48 h (AID 1152);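 note: E. coli MC1000 strain DRC41 lacking acrAB efflux pump and sulA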; conditions: E. coli DRC41 (acrAB sulA), higher = more signal, called active from +8 up or from −8 down
Each record here notes measured z-score.
No unit in the answer, only the number.

Reported z-score, compound COc1ccc(NN2C(C(O)c3ccc(F)cc3)C=CC3C(=O)N(C4CCCCC4)C(=O)C32)cc1 (stereo not drawn) : ____ -1.24

Reported z-score, compound C=C1C(=O)C=C2CN(C(=O)c3ccccc3)[C@@](Cc3ccc(F)cc3)(C(=O)OC)[C@@H]12 : ____ -2.05

Reported z-score, compound O=C/C=C/c1ccc(-c2ccccc2)cc1 : ____ 1.06

Reported z-score, compound CCCCC(=C=CC[C@H](O)c1cccc(OCCO)c1)C[C@H](O)c1cc(Cl)cc(Cl)c1O : ____ 0.513

Reported z-score, compound COc1ccc([Si](C)(C)[C@H]2[C@H](CC(=O)N(CCO)Cc3ccccc3)O[C@@]3(C(=O)N(c4ccccc4)c4ccccc43)[C@@H]2C)cc1 : ____ -0.79

Reported z-score, compound COc1ccc(CCNC(=O)[C@@]2(C)c3ccccc3C(=O)N(Cc3ccc(OC(F)(F)F)cc3)[C@H]2c2ccc(CO)cc2)cc1 : ____ -0.933

Reported z-score, compound CN(C)C(=O)[C@]1(CCS(=O)(=O)c2ccccc2)N=C(c2ccc(OCCCO)cc2)O[C@@H]1c1ccccc1CN=[N+]=[N-] : ____ 0.0558

====

Each record here notes measured composite z-score.
test system: Noggin (protein binding on small-molecule microarray); assay: Noggin binders on small-molecule microarray, primary screen, biochemical, 635/667 nm fluorescence (AID 1095); conditions: 635 nm fluorescence, higher = more signal;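 note: score merges 667 nm feature fluorescence with signal to noise over triplicate slides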
No unit in the answer, only the number.

{"molecule": "COc1ccc(CCNC(=O)[C@@]2(c3ccc([N+](=O)[O-])cc3)CC(=O)N(C3CCCCC3)[C@@H]2c2ccc(CO)cc2I)cc1", "value_type": "composite z-score", "readout_number": 0.153}
{"molecule": "COCCCNC(=O)[C@@]1(CCC(=O)OC(C)(C)C)N=C(c2ccc(OCCCO)cc2)O[C@H]1c1ccccc1", "value_type": "composite z-score", "readout_number": 1.56}
{"molecule": "[N-]=[N+]=NCc1ccccc1C[C@]1(C(=O)N2CCCCC2)COC(c2ccc(OCCCO)cc2)=N1", "value_type": "composite z-score", "readout_number": 0.683}
{"molecule": "COc1ccc([Si](C)(C)[C@H]2[C@H](CC(=O)N3CCC[C@H]3CO)O[C@@]3(C(=O)N(C)c4c(Br)cc(C)cc43)[C@@H]2C)cc1", "value_type": "composite z-score", "readout_number": 2.05}
{"molecule": "O=C(NCC(F)(F)F)[C@@H]1c2ccccc2C(=O)N(Cc2cc(C(F)(F)F)cc(C(F)(F)F)c2)[C@H]1c1ccc(CO)cc1", "value_type": "composite z-score", "readout_number": 0.148}

Here is the next item to consider.
Reported composite z-score, molecule COCCCNC(=O)[C@@]1(Cc2ccccc2I)c2ccccc2C(=O)N(Cc2ccccc2C(F)(F)F)[C@H]1c1ccc(CO)cc1 : ____ -0.473

====

system: Human papillomavirus type 1a E7 protein (residues 1-88); test: HPV1a E7 small-molecule binders, primary screen, biochemical, small-molecule microarray, residues 1-88, 635 nm (AID 1129); conditions: small-molecule microarray binding, fluorescence 635 nm; higher = more signal
Each record here notes measured composite z-score.

Study these solved cases before continuing.
{"molecular_string": "COc1cccc(C)c1NC(=O)O[C@H]1[C@H](OC(=O)Nc2ccc3c(c2)OCO3)[C@H](OC(=O)Nc2ccc3c(c2)OCO3)[C@@H](OC)O[C@@H]1CO", "value_type": "composite z-score", "result": 1.27}
{"molecular_string": "Cc1ccc(S[C@]2(C(=O)NC3CC3)CC(=O)N(C3Cc4ccccc4C3)[C@@H]2c2ccc(CO)cc2I)cc1", "value_type": "composite z-score", "result": 0.275}
{"molecular_string": "O=C(NC1CC1)[C@@H]1c2ccccc2C(=O)N(C2CCCCC2)[C@H]1c1ccc(CO)cc1", "value_type": "composite z-score", "result": 1.15}
{"molecular_string": "C=C(C(=O)CC[C@@H](OC(=O)c1ccccc1-c1ccccc1C(=O)O)c1cccc(OCCO)c1)C(C)C", "value_type": "composite z-score", "result": -0.481}
{"molecular_string": "CCCC=C(CCC)[C@@H](NC(=O)c1ccc(C(=O)OC)cc1)c1ccc(C(=O)OC)cc1", "value_type": "composite z-score", "result": 0.33}
{"molecular_string": "C=CC[C@]1(C(=O)NCCN2CCOCC2)N=C(c2ccc(OCCCO)cc2)O[C@H]1c1ccccc1", "value_type": "composite z-score", "result": 0.845}

Here is the next item to consider.
Reported composite z-score, compound COc1ccc([Si](C)(C)[C@H]2[C@H](CC(=O)N3CCC[C@H]3CO)O[C@@]3(C(=O)N(Cc4cccc(N5CCCCC5=O)c4)c4ccccc43)[C@@H]2C)cc1 : ____ 0.989

====

molecular target: Left-right determination factor 2 (Homo sapiens) (UniProt O00292); assay: LEFTY2 binders on small-molecule microarrays, primary screen, biochemical, small-molecule microarray, 635 nm fluorescence scan (AID 1110); conditions: LEFTY2 binding, higher = more signal
Sequence (O00292 whole entry, looked up): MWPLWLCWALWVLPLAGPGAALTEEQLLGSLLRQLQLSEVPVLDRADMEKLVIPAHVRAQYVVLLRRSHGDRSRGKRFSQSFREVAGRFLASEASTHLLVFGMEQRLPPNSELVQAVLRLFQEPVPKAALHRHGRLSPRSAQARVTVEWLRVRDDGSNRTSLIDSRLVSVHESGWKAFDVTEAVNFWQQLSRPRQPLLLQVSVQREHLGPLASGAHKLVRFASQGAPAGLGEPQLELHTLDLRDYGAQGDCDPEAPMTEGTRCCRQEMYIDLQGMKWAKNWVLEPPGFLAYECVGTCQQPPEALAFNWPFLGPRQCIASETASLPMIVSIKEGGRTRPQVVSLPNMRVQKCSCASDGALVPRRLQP
# if value of composite z-score reaches 0.6, tag condition met; if it stays below, tag condition not met

Study these solved cases before continuing.
{"compound": "COc1ccc([Si](C)(C)[C@@H]2[C@@H](CC(=O)N3Cc4ccccc4C[C@H]3CO)O[C@]3(C(=O)N(Cc4ccc(I)cc4)c4ccccc43)[C@H]2C)cc1", "class_label": "condition met"}
{"compound": "CC(C)C[C@H]1NC(=O)CNC(=O)[C@@]23C(=O)N[C@@H](Cc4ccccc4)C2[C@H](C)[C@@]2(C)O[C@H]2C3/C=C/C/C=C\\CNC1=O (some centres not stated)", "class_label": "condition met"}

Decide: is the reported value of composite z-score for CN1C(=O)C2C=CC(C(O)c3cccs3)N(N(c3ccccc3)c3ccccc3)C2C1=O (configuration not stated) equal to or greater than 0.6? condition not met

Decide: is the reported value of composite z-score for C=C(C(=O)CC[C@@H](OC(=O)c1ccccc1-c1ccccc1C(=O)O)c1ccc(CO)o1)C(C)C equal to or greater than 0.6? condition not met

Decide: is the reported value of composite z-score for COC(=O)C1=CC(c2ccc(CO)cc2)=CC(C2CC2)N(Cc2cc3c(cc2Br)OCO3)C=C1C(=O)OC (configuration not stated) equal to or greater than 0.6? condition not met

Decide: is the reported value of composite z-score for COc1ccc([Si](C)(C)[C@@H]2[C@@H](CC(=O)N3CCC[C@H]3CO)O[C@]3(C(=O)N(Cc4cccc(N5C(=O)c6cccc7cccc5c67)c4)c4ccccc43)[C@H]2C)cc1 equal to or greater than 0.6? condition not met

Decide: is the reported value of composite z-score for O=C1C2C=CC(C(O)C(c3ccccc3)c3ccccc3)N(Nc3ccccc3F)C2C(=O)N1c1ccccc1 (configuration not stated) equal to or greater than 0.6? condition not met

====

assay: S. cerevisiae RM11-1a growth modifiers, primary screen, strain RM11-1a, OD600, basal, 24 h (AID 1177); settings: OD600, 24 h, higher = more signal, called active from +8 up or from −8 down;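 note: cultures grown under basal conditions with no added stressor; test concentration not given here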
Activity calls are given as the source filed them.
value_type: z-score

Study these solved cases before continuing.
{"molecular_string": "COCCOC(=O)N1C(=O)[C@@]2(c3cc(C#CCC(C(=O)OC)C(=O)OC)ccc31)[C@H](c1ccc(O)cc1)N1[C@H](c3ccccc3)[C@H](c3ccccc3)OC(=O)[C@H]1[C@@H]2C(=O)N1CCc2cc(OC)c(OC)cc2C1", "result": "0.494 (inactive)"}
{"molecular_string": "CC[C@@H]1C=C(C(=O)O)[C@H](c2cccc(Cl)c2)N1S(=O)(=O)c1ccc(C)cc1", "result": "-0.285 (inactive)"}
{"molecular_string": "C=C(CCCC)C(=O)CC[C@@H](OC(C)=O)c1ccc(OCCO)cc1", "result": "0.662 (inactive)"}
{"molecular_string": "[N-]=[N+]=NCc1ccccc1[C@H]1OC(c2ccc(OCCCO)cc2)=N[C@@]1(Cc1ccccc1N=[N+]=[N-])C(N)=O", "result": "0.77 (inactive)"}
{"molecular_string": "CC(C)[Si](C#Cc1ccccc1)(O[C@H](c1ccccc1)c1cn(Cc2ccccc2)nn1)C(C)C", "result": "-0.282 (inactive)"}

Reported z-score, molecule O=C(CS)NCCCCCCNC(=O)[C@H]1C[C@H]2C(=O)NCC(=O)N2[C@H]1c1cccc(OCCO)c1 : ____ 0.0796 (inactive)

Reported z-score, molecule COCCCNC(=O)[C@@]1(CCC(=O)OC(C)(C)C)N=C(c2ccc(OCCCO)cc2)O[C@H]1c1ccccc1 : ____ 0.795 (inactive)
